test system: Ramos cells; assay: In vitro viability assay (WST-8); type: cell-based; conditions: Homo sapiens; unconjugated tomaymicine derivatives; Ramos; read-out: In vitro data (IC50) Ramos
observable: IC50 (pM)

INSERT INTO measurements (compound, result_value) VALUES
  ('C=C1C[C@H]2C=Nc3cc(OCc4cc(CCC(=O)OC)cc(COc5cc6c(cc5OC)C(=O)N5CC(=C)C[C@H]5C=N6)c4)c(OC)cc3C(=O)N2C1 [compound 8]', 8);

* * *

system: HL60/ATCC cells; assay: In vitro viability assay (WST-8); format: cell-based; settings: Homo sapiens, HL-60; unconjugated tomaymicine derivatives; HL60/ATCC; read-out: In vitro data (IC50) HL60/ATCC
observable: IC50 (pM)

INSERT INTO assay_data (smiles, unit_of_measure, result_value) VALUES
  ('C=C1C[C@H]2C=Nc3cc(OCc4cc(CCC(=O)OC)cc(COc5cc6c(cc5OC)C(=O)N5CC(=C)C[C@H]5C=N6)c4)c(OC)cc3C(=O)N2C1', 'pM', 4);

* * *

Each entry below carries its reported IC50.
system: PC-3 cells; test: Continuous exposure clonogenic assay; type: cell-based; details: Homo sapiens, PC-3, read-out: In vitro data (IC50) PC-3
observable: IC50 (nM)

INSERT INTO results (smiles, observable, unit_of_measure, result_value) VALUES
  ('C/C=C1\C[C@H]2C=Nc3cc(OCc4cc(OCCCC(=O)OC)cc(COc5cc6c(cc5OC)C(=O)N5C/C(=C/C)C[C@H]5C=N6)n4)c(OC)cc3C(=O)N2C1', 'IC50', 'nM', 0.011),
  ('C/C=C1\C[C@H]2C=Nc3cc(OCc4cc(COc5cc6c(cc5OC)C(=O)N5C/C(=C/C)C[C@H]5C=N6)cc(OCCN(C)C(=O)CCC(=O)OC)c4)c(OC)cc3C(=O)N2C1', 'IC50', 'nM', 0.5),
  ('C/C=C1\C[C@H]2C=Nc3cc(OCc4cc(COc5cc6c(cc5OC)C(=O)N5C/C(=C/C)C[C@H]5C=N6)cc(OCCOCCOCCOCCC(=O)OC)c4)c(OC)cc3C(=O)N2C1', 'IC50', 'nM', 0.0074),
  ('C/C=C1\C[C@H]2C=Nc3cc(OCc4cc(C#CCCCC(=O)OC)cc(COc5cc6c(cc5OC)C(=O)N5C/C(=C/C)C[C@H]5C=N6)c4)c(OC)cc3C(=O)N2C1', 'IC50', 'nM', 0.027),
  ('C/C=C1\C[C@H]2C=Nc3cc(OCc4cc(OCCOCCOCCOCCC(=O)OC)cc(COc5cc6c(cc5OC)C(=O)N5C/C(=C/C)C[C@H]5C=N6)n4)c(OC)cc3C(=O)N2C1', 'IC50', 'nM', 0.5);
